Recorded values, source BigSolDB 2.1.

- Condition Notes: in isobutanol, 312.95 K
Parameter: solubility (mole fraction)

Quick note, solubility (mole fraction) for C[C@@H]1CC[C@@]2(OC1)O[C@H]1C[C@H]3[C@@H]4CC=C5C[C@@H](O)CC[C@]5(C)[C@H]4CC[C@]3(C)[C@H]1[C@@H]2C landed at 0.00456

###

- Condition Notes: in n-pentanol, 325.75 K
Parameter: solubility (mole fraction)
// print number alone

The value of solubility (mole fraction) measured for the compound C[C@@H]1CC[C@@]2(OC1)O[C@H]1C[C@H]3[C@@H]4CC=C5C[C@@H](O)CC[C@]5(C)[C@H]4CC[C@]3(C)[C@H]1[C@@H]2C turned out to be 0.0128

###

- Condition Notes: in n-butanol, 309.65 K
Parameter: solubility (mole fraction)
Please give the numeric answer without any surrounding text.

solubility (mole fraction) reported for this molecule C[C@@H]1CC[C@@]2(OC1)O[C@H]1C[C@H]3[C@@H]4CC=C5C[C@@H](O)CC[C@]5(C)[C@H]4CC[C@]3(C)[C@H]1[C@@H]2C : 0.00694

###

- Condition Notes: in isobutanol, 328.65 K
Parameter: solubility (mole fraction)
Could you respond with only the numeric value?

The value of solubility (mole fraction) measured for the compound C[C@@H]1CC[C@@]2(OC1)O[C@H]1C[C@H]3[C@@H]4CC=C5C[C@@H](O)CC[C@]5(C)[C@H]4CC[C@]3(C)[C@H]1[C@@H]2C turned out to be 0.00931

###

- Condition Notes: in ethanol, 320.25 K
Parameter: solubility (mole fraction)
Reply with just the number.

Record C[C@@H]1CC[C@@]2(OC1)O[C@H]1C[C@H]3[C@@H]4CC=C5C[C@@H](O)CC[C@]5(C)[C@H]4CC[C@]3(C)[C@H]1[C@@H]2C . Reported solubility (mole fraction): 0.00253

###

- Condition Notes: in tert-butanol, 302.15 K
Parameter: solubility (mole fraction)
Give the figure only, with no unit attached.

GET /value?item= C[C@@H]1CC[C@@]2(OC1)O[C@H]1C[C@H]3[C@@H]4CC=C5C[C@@H](O)CC[C@]5(C)[C@H]4CC[C@]3(C)[C@H]1[C@@H]2C &field=solubility (mole fraction) returns 0.000811

###

- Condition Notes: in isobutanol, 314.85 K
Parameter: solubility (mole fraction)

// recorded solubility (mole fraction) for C[C@@H]1CC[C@@]2(OC1)O[C@H]1C[C@H]3[C@@H]4CC=C5C[C@@H](O)CC[C@]5(C)[C@H]4CC[C@]3(C)[C@H]1[C@@H]2C : 0.0054

###

- Condition Notes: in n-pentanol, 320.65 K
Parameter: solubility (mole fraction)
Give the value as a plain number.

Kindly note the recorded solubility (mole fraction) for C[C@@H]1CC[C@@]2(OC1)O[C@H]1C[C@H]3[C@@H]4CC=C5C[C@@H](O)CC[C@]5(C)[C@H]4CC[C@]3(C)[C@H]1[C@@H]2C , which is 0.0111

###

- Condition Notes: in isobutanol, 306.95 K
Parameter: solubility (mole fraction)
Note: the reply should be a number with no unit written.

According to the records, this compound C[C@@H]1CC[C@@]2(OC1)O[C@H]1C[C@H]3[C@@H]4CC=C5C[C@@H](O)CC[C@]5(C)[C@H]4CC[C@]3(C)[C@H]1[C@@H]2C displays solubility (mole fraction) of 0.00266

###

- Condition Notes: in isooctanol, 323.25 K
Parameter: solubility (mole fraction)
Respond numerically, and do not add a unit to the figure.

For record C[C@@H]1CC[C@@]2(OC1)O[C@H]1C[C@H]3[C@@H]4CC=C5C[C@@H](O)CC[C@]5(C)[C@H]4CC[C@]3(C)[C@H]1[C@@H]2C the listed solubility (mole fraction) is 0.017
